# credit: PubChem BioAssay (EPA / NIEHS)

Read-out: Interleukin-6 (IL6), IL6 (gene 3569)
ASSAY_COMMENT: BSK_CASM3C_IL6: BioMAP Diversity Plus: CASM3C Assay for Interleukin-6 (IL6) Biomarker Activity for (AID 2283040)
EXPERIMENTAL_CONTEXT: primary human coronary artery smooth muscle cells; actives raise or lower the signal
Activity calls are given as the source filed them. How the source made its calls: active means hit-call score of the fitted dose curve at least 0.9, where 1 is the maximum; inactive means score below 0.9.
Could you please pick one outcome from this set? active, inactive

QUERY_SMILES	LABEL_CLASS
O=C(O)Cc1cc(I)c(Oc2cc(I)c(O)c(I)c2)c(I)c1	active
CN1CCN(c2ccccc2/C=C2\SCCN(c3ccc(Cl)c(Cl)c3)C2=O)CC1	inactive
CCCCCCCCCCCCCCCS(=O)(=O)Oc1ccccc1	inactive
C#C[C@]1(O)CC[C@H]2[C@@H]3CCC4=CC(=O)CC[C@@H]4[C@H]3CC[C@@]21C	inactive

In: Please let me know the test result on file for CCCCOCCO .
Out: inactive

In: Please let me know the test result on file for CN(C)C=O .
Out: inactive

In: Please let me know the test result on file for Oc1cccc(O)c1 .
Out: inactive

In: Please let me know the test result on file for CC[C@H](c1ccc(O)cc1)[C@@H](CC)c1ccc(O)cc1 .
Out: inactive

In: Please let me know the test result on file for CC[C@H](C)[C@@H](C(=O)O)n1sc2ccccc2c1=O .
Out: inactive

In: Please let me know the test result on file for OCCC(F)(F)C(F)(F)C(F)(F)C(F)(F)C(F)(F)C(F)(F)F .
Out: inactive

In: Please let me know the test result on file for c1ccc2cc3c(ccc4ccccc43)cc2c1 .
Out: inactive

In: Please let me know the test result on file for COc1ccc([N+](=O)[O-])cc1N .
Out: inactive

In: Please let me know the test result on file for CCN(CC)CCNc1ccc(CNC=O)c2sc3ccc(OC)cc3c(=O)c12 .
Out: active

In: Please let me know the test result on file for CN1CCC[C@H]1c1cccnc1 .
Out: inactive

====

TEST_SYSTEM: human Opioid Receptor Mu (Opiate Mu), OPRM1 (gene 4988)
ASSAY_COMMENT: NVS_GPCR_hOpiate_mu: NovaScreen (NVS) G Protein-Coupled Receptor Assay for human Opioid Receptor Mu (Opiate Mu) (AID 2283290);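 further: hits lower bound tracer signal versus DMSO meaning displacement of the ligand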
Results filed as inconclusive are left out. Calls of active or inactive are those of the source. Rule for the calls: active = hit-call score of the fitted dose curve at least 0.9, where 1 is the maximum; inconclusive = response in the unintended direction; inactive = score below 0.9.
Could you please pick one outcome from this set? T (active), F (inactive)

Example entries begin here.
COMPOUND	LABEL_CLASS
CCCOc1sc(C(=O)N2CCC(c3cc(CN)ccc3F)CC2)c(C)c1Br	T
CC#C[C@]1(O)CC[C@H]2[C@@H]3CCC4=CC(=O)CCC4=C3[C@@H](c3ccc(N(C)C)cc3)C[C@@]21C	T
CC(C)CCCCCCOC(=O)CCCCC(=O)OCCCCCCC(C)C	F

In: Please let me know the test result on file for CCCCCCCCCCCCc1ccccc1S(=O)(=O)O .
Out: T

In: Please let me know the test result on file for CC(=O)NC1(c2cccc(F)c2)CCN(CC[C@@]2(c3ccc(Cl)c(Cl)c3)CN(c3ccccc3)C(=O)CO2)CC1 .
Out: T

In: Please let me know the test result on file for CC(C)(C)c1ccc(O)c(C(C)(C)C)c1 .
Out: F

In: Please let me know the test result on file for NC(=O)N(O)[C@@H]1C=C[C@H](Oc2cccc(Oc3ccc(F)cc3)c2)C1 .
Out: F

In: Please let me know the test result on file for NC(=O)N1C(=O)C(C(=O)c2cc(Cl)cs2)c2cc(F)c(Cl)cc21 (centres undefined) .
Out: F

In: Please let me know the test result on file for CCC(=C(c1ccc(O)cc1)c1ccc(OCCN(C)C)cc1)c1ccccc1 .
Out: T

====

TEST_SYSTEM: Retinoic acid receptor RXR-alpha (Homo sapiens)
ASSAY_COMMENT: OT_NURR1_NURR1RXRa_1440: Odyssey Thera (OT) 24-hour HEK293T Protein Complementation Assay for Nurr1/retinoid X receptor (RXR) (AID 2283386)
Results filed as inconclusive are left out. Calls of active or inactive are those of the source. Rule for the calls: active = hit-call score of the fitted dose curve at least 0.9, where 1 is the maximum; inconclusive = response in the unintended direction; inactive = score below 0.9.
Could you please pick one outcome from this set? label 1 = active, label 0 = inactive

Example entries begin here.
MOLECULE	LABEL_CLASS
O=C(O)Cc1cc(I)c(Oc2cc(I)c(O)c(I)c2)c(I)c1	label 1
CC(=O)CC(C)(C)O	label 0
CCCCC(CC)COC(=O)CCCCC(=O)OCc1ccccc1 (stereo not drawn)	label 0
C=C(C)C(=O)OCCC(F)(F)C(F)(F)C(F)(F)C(F)(F)C(F)(F)C(F)(F)F	label 0
NC(=O)N(O)[C@@H]1C=C[C@H](Oc2cccc(Oc3ccc(F)cc3)c2)C1	label 0
CCCCCCCC(=O)O	label 0
CC[C@H](C)[C@@H](C(=O)O)n1sc2ccccc2c1=O	label 0
CCCCCCC(=O)O	label 0
c1ccc2c(c1)ccc1ccccc12	label 0
CCCCCCCCCCCCc1ccccc1S(=O)(=O)O	label 0

In: Please let me know the test result on file for CCC(C)(C)C1CCC(O)CC1 (stereo not drawn) .
Out: label 0

In: Please let me know the test result on file for N#C[C@@H]1CC(F)(F)CN1C(=O)CNC1CC2CCC(C1)N2c1ncccn1 (stereo partly drawn) .
Out: label 0

In: Please let me know the test result on file for CCCCOCCO .
Out: label 0

====

Read-out: Interferon-gamma inducible Protein 10 (IP10), CXCL10 (gene 3627)
ASSAY_COMMENT: BSK_KF3CT_IP10: BioMAP Diversity Plus: KF3CT Assay for Interferon-gamma inducible Protein 10 (IP10) Biomarker Activity (AID 2283068)
EXPERIMENTAL_CONTEXT: primary human keratinocytes with fibroblasts; actives raise or lower the signal
Procedure: BSK_KF3CT is a cell-based, multiplexed-readout assay that uses keratinocytes and foreskin fibroblasts, a human skin primary cell co-culture, with measurements taken at 24 hours after chemical dosing in a 96-well plate.BSK_KF3CT_IP10 is an assay component measured in the BSK_KF3CT assay. It measures IP-10 antibody related to regulation of gene expression using ELISA technology.Data from the assay component BSK_KF3CT_IP10 was analyzed into 1 assay endpoint. […]
Calls of active or inactive are those of the source. How the source made its calls: active means hit-call score of the fitted dose curve at least 0.9, where 1 is the maximum; inactive means score below 0.9.
Could you please pick one outcome from this set? active, inactive

Example entries begin here.
MOLECULE	LABEL_CLASS
ClC1=C(Cl)C(Cl)(Cl)C(Cl)=C1Cl	active
CCCCCCCC(=O)O	inactive
CCCCCCCCC(=O)O	inactive
CN1CCC[C@H]1c1cccnc1	inactive
CC(C)(C)CC(C)(C)c1ccc(O)c(-n2nc3ccccc3n2)c1	inactive

In: Please let me know the test result on file for c1ccc2c(c1)Cc1ccccc1-2 .
Out: inactive

In: Please let me know the test result on file for CCCCOCCO .
Out: inactive

In: Please let me know the test result on file for CCC(C)(C)C1CCC(O)CC1 (centres undefined) .
Out: active

In: Please let me know the test result on file for Oc1cc2ccccc2c2ccccc12 .
Out: active

====

TEST_SYSTEM: Aryl hydrocarbon receptor (Homo sapiens) (UniProt P35869)
Sequence (P35869 whole entry, looked up): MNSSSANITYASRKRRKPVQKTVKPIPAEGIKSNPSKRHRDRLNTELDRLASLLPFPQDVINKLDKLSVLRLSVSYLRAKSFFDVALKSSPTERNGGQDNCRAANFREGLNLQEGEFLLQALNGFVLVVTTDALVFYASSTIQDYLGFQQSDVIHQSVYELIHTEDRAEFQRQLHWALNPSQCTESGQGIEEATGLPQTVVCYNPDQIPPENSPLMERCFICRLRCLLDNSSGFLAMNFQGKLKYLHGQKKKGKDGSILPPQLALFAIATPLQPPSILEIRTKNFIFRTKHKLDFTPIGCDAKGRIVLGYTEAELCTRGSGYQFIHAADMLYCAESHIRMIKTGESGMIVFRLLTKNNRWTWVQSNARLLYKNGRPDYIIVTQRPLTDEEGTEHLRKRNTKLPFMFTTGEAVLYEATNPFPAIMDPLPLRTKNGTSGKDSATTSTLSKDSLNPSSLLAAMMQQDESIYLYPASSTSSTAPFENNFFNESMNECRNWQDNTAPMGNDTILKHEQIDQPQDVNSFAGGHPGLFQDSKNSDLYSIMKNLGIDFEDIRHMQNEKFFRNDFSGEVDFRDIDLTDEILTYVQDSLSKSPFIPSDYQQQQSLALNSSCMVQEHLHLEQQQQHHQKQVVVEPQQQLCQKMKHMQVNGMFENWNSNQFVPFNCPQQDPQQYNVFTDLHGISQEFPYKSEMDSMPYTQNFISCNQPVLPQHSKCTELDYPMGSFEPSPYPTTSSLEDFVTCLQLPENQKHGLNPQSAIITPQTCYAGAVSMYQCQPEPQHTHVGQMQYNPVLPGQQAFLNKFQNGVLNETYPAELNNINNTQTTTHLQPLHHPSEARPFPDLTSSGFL
ASSAY_COMMENT: ATG_Ahr_CIS: Attagene CIS-FACTORIAL HepG2 Assay for human Aryl Hydrocarbon Receptor (Ahr) (AID 2282930)
EXPERIMENTAL_CONTEXT: HepG2 AhR cis-factorial reporter transcription; actives raise or lower the signal
Calls of active or inactive are those of the source. How the source made its calls: active means hit-call score of the fitted dose curve at least 0.9, where 1 is the maximum; inactive means score below 0.9.
Could you please pick one outcome from this set? 1 = active, -1 = inactive

Example entries begin here.
COMPOUND	LABEL_CLASS
CCCCCCC(=O)O	-1
CCCCC(CC)COC(=O)CCCCC(=O)OCC(CC)CCCC (centres undefined)	1
O=[N+]([O-])c1ccc(O)cc1	-1
CC(O)CO (centres undefined)	-1
Cc1cc(C)c(O)c(C)c1	-1
CN1CCC[C@H]1c1cccnc1	-1

In: Please let me know the test result on file for CCCCCCCCCCCCc1ccccc1S(=O)(=O)O .
Out: -1

In: Please let me know the test result on file for CCc1ccc(CCOc2ccc(CC3SC(=O)NC3=O)cc2)nc1 (centres undefined) .
Out: -1

In: Please let me know the test result on file for OCCC(F)(F)C(F)(F)C(F)(F)C(F)(F)C(F)(F)C(F)(F)C(F)(F)C(F)(F)F .
Out: -1

In: Please let me know the test result on file for CCCCCCCCCCCCN1CCCC1=O .
Out: -1

In: Please let me know the test result on file for CCCCCCCCCCCCCCCS(=O)(=O)Oc1ccccc1 .
Out: -1

In: Please let me know the test result on file for OCCC(F)(F)C(F)(F)C(F)(F)C(F)(F)C(F)(F)C(F)(F)F .
Out: -1

In: Please let me know the test result on file for NC(=O)N(O)[C@@H]1C=C[C@H](Oc2cccc(Oc3ccc(F)cc3)c2)C1 .
Out: -1

In: Please let me know the test result on file for CC(=O)NC1(c2cccc(F)c2)CCN(CC[C@@]2(c3ccc(Cl)c(Cl)c3)CN(c3ccccc3)C(=O)CO2)CC1 .
Out: -1

In: Please let me know the test result on file for CC[C@H](c1ccc(O)cc1)[C@@H](CC)c1ccc(O)cc1 .
Out: -1
